Biological target: Luciferin 4-monooxygenase (Photinus pyralis)
Assay: qHTS profiling assay for firefly luciferase inhibitor/activator using purifed enzyme and Km concentrations of substrates (counterscreen for miR-21 project); also: nearly all actives have a fitted effect of over 55% in size
Details: purified FLuc, luminescence inhibition; series mostly up to 57.5 µM
Excerpt: MLPCN Grant: 1 R21 NS059478-01 (miR-21 grant) Assay Provider: NCGC NCGC Assay Overview: Firefly (Photinus pyralis) luciferase is one of the most commonly used transcriptional reporters for a number of reasons. […] Although light produced in a bioluminescence reaction is of lower intensity than that produced during fluorescence emission, this is offset by little to no background light inherent to luminescent assays. […]
Among all 360,000 compounds or so, about 25,000 (6.9%) were called active. About 9% were inconclusive and are not listed. Calls follow the shape of the dose curve; as a rule, active = well fitted inhibition curve with a large enough effect; inconclusive = small, poorly fitted or top-dose-only effect; inactive = flat fitted curve, though single readings scatter. Only a selection was taken, and actives are over-represented in it overall.
Possible outcomes: label 1 = active, label 0 = inactive

1) CSc1cc(C)n(-c2ccccc2C)c(=S)c1C(C)=O ... label 0
2) CCC1CCCCN1S(=O)(=O)c1ccc(NC(=O)c2cc(=O)c3ccccc3o2)cc1 (centres undefined) ... label 0
3) COc1ccccc1CNC(=O)CCCN1C(=O)NC2(CCCC2)C1=O ... label 0
4) COCCCNC(=S)N(CCN(C)C)Cc1cc2cc3c(cc2[nH]c1=O)OCCO3 ... label 0
5) O=C(CN1CCN(C(=O)C2CCCO2)CC1)Nc1c(Cl)cccc1Cl (centres undefined) ... label 0
6) O=C1C=C(NCCNc2c(F)c(F)c(CO)c(F)c2F)CCC1 ... label 0
7) Cc1sc2ncnc(N3CCC(C(=O)Nc4ccc(F)cc4Cl)CC3)c2c1C ... label 0
8) CC(C)CC(=O)NC(=S)NNC(=O)c1cccc([N+](=O)[O-])c1 ... label 0
9) CCC(C)NC(=O)CCCc1ccccc1 (centres undefined) ... label 0
10) Cc1ccccc1N1CC(c2nc3ccccc3[nH]2)CC1=O (centres undefined) ... label 0
11) CSc1ccc(NC(=O)/C=C/C(=O)O)cc1 ... label 0
12) Cc1cc(/C=C2\SC(=Nc3ccc(N4CCOCC4)cc3)N(C)C2=O)c(C)n1-c1cccnc1 ... label 0
13) CCOC(=O)c1c(C)[nH]c(CCC(=O)Nc2ccc(OC)c(OC)c2)c1C ... label 0
14) COc1ccc(C(C)NC(=O)C23CC4CC(CC(C4)C2)C3)cc1 (centres undefined) ... label 0
15) CSc1ccc(/C=C/C(=O)NC23CC4CC(CC(C4)C2)C3)cc1 ... label 1
16) C=CCN1CCN(C(=O)CCCc2ccccc2)CC1 ... label 1
17) O=C(NCc1ccncc1)NC12CC3CC(CC(C3)C1)C2 ... label 0
18) Cc1ccc2nc(NC(=O)c3nc(SCc4ccccc4F)ncc3Cl)sc2c1 ... label 0
19) CCc1ccc(NC(=O)Cn2ncn3c(cc4ccccc43)c2=O)cc1 ... label 0
20) CCn1nc(C)c(/C=N/NC(=O)Cc2ccc(Cl)cc2)c1C ... label 1
21) CCCN(CCC)CCCNC(=O)Cn1ncc2c3ccccc3n(Cc3ccccc3)c2c1=O ... label 0
22) Cc1ccccc1-n1c(C)cc(/C=C2\NC(=O)NC2=O)c1C ... label 1
23) COc1cc2ccccc2cc1C(=O)Nc1ccncc1 ... label 1
24) CCOc1ccc(NC(=O)CN(C)C(=O)c2cccc(S(=O)(=O)N3CCCC3)c2)cc1OCC ... label 0
25) Cc1cc(C)n2nc(CNS(=O)(=O)c3c(F)c(F)c(F)c(F)c3F)nc2n1 ... label 0
26) CCCCN1CC(c2nc3ccccc3n2CCCCOc2ccc(C)cc2C)CC1=O (centres undefined) ... label 0
27) Cc1cc(C)n2nc(C(=O)Nc3cccc(S(=O)(=O)N4CCOCC4)c3)nc2n1 ... label 0
28) CC(C)CCNC(=O)CSc1nc2ccccc2nc1Cc1ccc(Cl)cc1 ... label 0
29) COc1ccccc1NC(=O)c1cc(S(=O)(=O)NCCc2ccccc2)ccc1F ... label 0
30) COc1ccc([C@H]2CC(=O)C=C(c3ccc(C)cc3)C2)cc1 ... label 0
31) CN(C)Cc1c(C#N)c2ccccc2n1C ... label 0
32) CC1=NN(C(=O)CCCc2ccccc2)C(O)(C(F)(F)F)C1 (centres undefined) ... label 0
33) Cc1sc2ncnc(N3CCC(C(=O)Nc4nc5ccc(Cl)cc5s4)CC3)c2c1C ... label 1
34) Cc1cc(C)c(NC(=O)c2cc3sc(Cl)cc3n2C)c(C)c1 ... label 0
35) O=C(Cn1ncc2c3ccccc3n(Cc3ccccc3)c2c1=O)NCCCN1CCOCC1 ... label 0
36) Cc1cc(C)c(C#N)c(N2CCC(C(N)=O)CC2)n1 ... label 0
37) N#Cc1c(-c2ccccc2)cc(-c2ccccc2)nc1SCC(=O)O ... label 0
38) Cc1ccc(OS(=O)Nc2cccc3nccnc23)cc1 (centres undefined) ... label 0
39) Cc1ccccc1-c1cc(C(=O)NCc2cccs2)n(CC2CC(c3cccnc3)=NO2)n1 (centres undefined) ... label 0
40) O=C(NC1(C(F)(F)F)N=C(c2ccccc2)N(C2CCCCC2)C1=O)c1ccccc1F (centres undefined) ... label 0
41) COc1ccc(Cl)cc1NC(=O)Cn1c(=O)c2ccccc2n2nncc12 ... label 0
42) Cc1nn(Cc2ccc(Cl)cc2)c(Cl)c1/C=N/NC(=O)CNc1ccccc1F ... label 0
43) Cc1ccc2c(c1)c1c(c(=O)n(-c3ccccc3)c(=O)n1CC(=O)c1ccc(Cl)cc1)n2C ... label 0
44) COc1cc2ccccc2cc1C(=O)Nc1ccc(NC(=O)c2cccs2)cc1 ... label 0
